tgt: T1, hK1 (human tissue kallikrein 1), recombinant (human, UniProt P06870 25-262)
T1 construct: Expressed in P. pastoris from KLK1 cDNA and purified; enzymatically active; also called KLK1; Recombinant (Pichia) Kallikrein
test.description: SPR
measured.property: Kd (nM)
Return type: number; implicit unit nM.

Recorded Kd (binder M0139-A09 (Fab, V domains shown) VH: EVQLLESGGGLVQPGGSLRLSCAASGFTFSWYFMVWVRQAPGKGLEWVSGIGPSGGLTTYADSVKGRFTISRDNSKNTLYLQMNSLRAEDTAVYYCARSDWLNYWGQGTLVTVSS VL: DIVMTQTPPSLPVNPGEPASISCRSSQSLVYSDGNTYLNWFQQRPGQSPRRLIYKVSNRDSGVPDRFSGSGSGTDFTLKISRVEAEDVGVYYCMQGTHWQRLTFGGGTKVEIKR ): 5.48

Recorded Kd (binder M0104-B12 (Fab, V domains shown) VH: EVQLLESGGGLVQPGGSLRLSCAASGFTFSIYAMIWVRQAPGKGLEWVSSIYSSGGPTQYADSVKGRFTISRDNSKNTLYLQMNSLRAEDTAVYYCARGRRTYYYDSSGYYKYAAFDIWGQGTMVTVSS VL: DIQMTQSPSSLSASVGDRVTITCRASQAISNYLAWYQQQPGKVPKLLISAASTLQSGVPSRFSGSGSGTDFTLSISSLQPEDVATYYCQTYYSVPFTFGPGTKVDFKR ): 7.41

Recorded Kd (binder M0093-C10 (Fab, V domains shown) VH: EVQLLESGGGLVQPGGSLRLSCAASGFTFSRYTMEWVRQAPGKGLEWVSVIRPSGGTTMYADSVKGRFTISRDNSKNTLYLQMNSLRAEDMAVYYCARVGVWYGMDVWGQGTTVTVSS VL: DIQITQSPSSLSASVGDRVTITCRASQGISNYLAWYQQKPGKVPKLLIYAASTLQSGVPSRFSGSGSGTDFTLTISSLQPEDFATYYCEQLNSFPHAFGQGTKVEIKR ): 22.6

Just for reference, patent US7329737 is where these values come from.
